Test system: OVCAR-8 ovarian
Assay: NCI-60 one-dose screen, 48 h (100 = growth as untreated, 0 = no growth, -100 = all killed)
Conditions: 10 µM unless noted
This is part of a sample that, as a whole, favours compounds with a hit. Of some 83,000 tested, about 20% had one in any assay. Active and inactive are the calls of the source. Rule for the calls: active = growth percent below 10; inactive = the rest.
observed-property: growth

INSERT INTO measurements (compound, meas_value) VALUES
  ('COc1cc2nc3cc([N+](=O)[O-])ccc3c(NCCCNCCO)c2cc1OC', '-28.9% (active)'),
  ('CS(=O)(=O)c1ccc(/C(=N/NC(N)=S)c2ccc(F)cc2)cc1', '103% (inactive)'),
  ('C#CC(F)(F)[C@]1(O)CCC2C3CCC4=CC(=O)CCC4=C3[C@@H](c3ccc(N(C)C)cc3)C[C@@]21C (stereo partly drawn)', '86.7% (inactive)'),
  ('CN(C)CC1C(=O)O[C@H]2[C@H]1CC/C(COC(=O)NCc1ccc(Cn3c(=O)sn(CCCI)c3=O)cc1)=C\CC[C@@]1(C)O[C@@H]21 (stereo partly drawn)', '-68.2% (active)'),
  ('C=C(C)[C@@H]1CC[C@]2(COCCCNCCCN)CC[C@]3(C)[C@H](CC[C@@H]4[C@@]5(C)CC[C@H](OCCCN)C(C)(C)[C@@H]5CC[C@]43C)[C@@H]12', '-66.3% (active)'),
  ('C=C1CC[C@@H]2[C@](C)(COC(C)=O)[C@H](OC(C)=O)CC[C@@]2(C)[C@@H]1CC(Nc1ccc(S(=O)(=O)Nc2nccc(C)n2)cc1)C1=CCOC1=O (stereo partly drawn)', '10.5% (inactive)'),
  ('Brc1ccc(-c2nn(-c3ccccc3)cc2-c2nn[nH]n2)s1', '96.3% (inactive)'),
  ('COc1ccc(C(=O)C2OC3=C(C(=O)CC(C)(C)C3)C2c2cccc(Oc3ccccc3)c2)cc1 (stereo not drawn)', '88.9% (inactive)'),
  ('COc1cc(C2CC(c3cccc(Nc4ccncc4)c3)=Nc3c(N)ncnc3N2)cc(OC)c1OC (stereo not drawn)', '93.6% (inactive)'),
  ('COc1ccc(-c2nc3cc(C(=O)NC4CCCCC4)ccc3n2C2CCCCC2)cc1', '107% (inactive)'),
  ('CCOC(=O)C1=C(C)N(C)C(=O)N(C)C1c1ccccc1 (stereo not drawn)', '104% (inactive)'),
  ('COc1ccc(/C=N\NC(=O)c2ccc3nc(-c4ccc(Cl)cc4)[nH]c3c2)cc1', '31.3% (inactive)'),
  ('Clc1ccc(C2=Nn3c(nnc3-c3cc(Cl)cc(Cl)c3Cl)SC2)cc1', '71.8% (inactive)'),
  ('COc1cc(NC(=O)c2cncnc2Nc2ccc3c(ccn3Cc3cccc(F)c3)c2)cc(OC)c1', '65.8% (inactive)'),
  ('O=C(O)/C=C/c1cn(-c2ccccc2)nc1-c1ccc(F)cc1', '87.4% (inactive)'),
  ('Cn1cc(-c2ccc3c(Nc4cccc(NC(=O)Nc5cccc(F)c5)c4)ncnc3c2)cn1', '34.6% (inactive)'),
  ('Cc1c2cnccc2c(C)c2c1c1cc(C(=O)O)ccc1n2C', '5.83% (active)'),
  ('COc1ccc(-c2nc(SCCC(C)C)nc(N/N=C(/C)c3ccc(N)cc3)c2C#N)cc1', '92.7% (inactive)');

---

System: SW-620 colon
Experiment: NCI-60 one-dose screen, 48 h (100 = growth as untreated, 0 = no growth, -100 = all killed)
Settings: 10 µM unless noted
About 83,000 compounds went through this panel and 20% of them were active in at least one assay; those are over-represented in the sample as a whole.
Label fulfilled when growth is at or above 30%; anything below gets not fulfilled.

INSERT INTO measurements (molecule, assigned_label) VALUES
  ('CN1CCN(Cc2ccc(NC(=O)c3cncc(C#Cc4c(N)ncc5cc(F)ccc45)c3)cc2C(F)(F)F)CC1', 'not fulfilled'),
  ('COc1cc(/C=C/c2cc(/C=C/c3ccc(O)c(OC)c3)n(C(=O)Nc3ccc(C)cc3C)n2)ccc1O', 'not fulfilled'),
  ('CCN1CCN(c2cc(C(=O)Nc3cccc(Nc4ccc5c(OC)cccc5n4)c3)cc(C(F)(F)F)c2)CC1', 'not fulfilled'),
  ('CNC(=O)c1cc(Oc2ccc3nc(NC(=O)c4cc(C(F)(F)F)cc(C(F)(F)F)c4)sc3c2)ccn1', 'fulfilled'),
  ('COc1ccc(N/N=C/c2ccc3c(c2)Sc2ccccc2N3C)cc1', 'not fulfilled'),
  ('CCOC(=O)c1cc(C(=O)c2cc(OC)cc(OC)c2)n2ccccc12', 'not fulfilled'),
  ('CCCCCCCCOC(=O)c1c(C)[nH]c(/C=C2\N=C(c3ccc[nH]3)C=C2OC)c1C', 'not fulfilled'),
  ('C#Cc1c(I)n(C2OC(CO[Si](C)(C)C(C)(C)C)C3OC(C)(C)OC32)c(=O)[nH]c1=O (stereo not drawn)', 'not fulfilled'),
  ('CCN(CC)CCOc1ccc(/C(=C(\C)Cc2ccc(OC)cc2)c2ccc(O)cc2)cc1', 'not fulfilled'),
  ('CC1(C)CC(=O)C2=C(C1)OC(C(=O)c1ccccc1)C2c1cccc(Oc2ccccc2)c1 (stereo not drawn)', 'fulfilled'),
  ('CC(CN)[C@@H]1CC[C@]2(CO)CC[C@]3(C)[C@H](CC[C@@H]4[C@@]5(C)CCC(NCCO)C(C)(C)[C@@H]5CC[C@]43C)[C@@H]12 (stereo partly drawn)', 'not fulfilled'),
  ('Cc1ccc(C(=O)Nc2ccc(CN3CCN(C)CC3)c(C(F)(F)F)c2)cc1C#Cc1cnc(N)c2ccccc12', 'not fulfilled'),
  ('CC1(C)CC[C@]2(CO)CC[C@]3(C)C(=CC[C@@H]4[C@@]5(C)CCNCC(C)(C)[C@@H]5CC[C@]43C)[C@@H]2C1', 'not fulfilled'),
  ('Cn1ncc(CC(=O)O)c1-n1nnc2cc(Cl)ccc2c1=O', 'fulfilled'),
  ('COC(=O)c1cc(-c2cc(OC)c(OC)c(OC)c2)[nH]c1N/N=C/c1c(Cl)cccc1Cl', 'fulfilled'),
  ('CCCS(=O)(=O)Nc1cccc(Nc2ncnc3cc(NC(=O)CCl)ccc23)c1Cl', 'not fulfilled'),
  ('CN(Cc1ccccc1)c1nc(Cl)c(C2CC(c3ccc(Cl)cc3)=NN2c2cc(Cl)cc(Cl)c2)s1 (stereo not drawn)', 'fulfilled');

---

System: CAKI-1 renal
Assay: NCI-60 one-dose screen, 48 h (100 = growth as untreated, 0 = no growth, -100 = all killed)
Conditions: 10 µM unless noted
About 83,000 compounds went through this panel and 20% of them were active in at least one assay; those are over-represented in the sample as a whole.
observed-property: growth (%)

INSERT INTO measurements (molecule, assayed_target, observed_property, meas_value) VALUES
  ('O=C1C=CC2(O)OC(c3ccccc3)CC(=O)C2=C1O (stereo not given)', 'CAKI-1 renal', 'growth', 86.5),
  ('COc1cccc(C(=O)Nc2cccc(NC(=O)c3ccccn3)c2)c1', 'CAKI-1 renal', 'growth', 99.1),
  ('O=C(Nc1ncc(Cc2cc(C(F)(F)F)ccc2Cl)s1)C(=S)N1CCOCC1', 'CAKI-1 renal', 'growth', 67.1),
  ('COc1ccc(-c2nc3cc(C(=O)NC4CCCCC4)ccc3n2C2CCCCC2)cc1', 'CAKI-1 renal', 'growth', 89.2),
  ('O=C(/C=C/c1ccc([N+](=O)[O-])cc1)c1cccc(Nc2nc(Nc3ccccc3)nc(Nc3ccccc3)n2)c1', 'CAKI-1 renal', 'growth', 72.5);

---

System: NCI-H460 lung
Assay: NCI-60 one-dose screen, 48 h (100 = growth as untreated, 0 = no growth, -100 = all killed)
Settings: 10 µM unless noted
Experimental: Growth inhibition of the NCI-H460 human Non-Small Cell Lung tumor cell line is measured as a screen for anti-cancer activity. Cells are grown in 96 well plates and exposed to the test compound for 48 hours. Compounds are tested at a single concentration, which is 10^-5 M for most compounds. The reported endpoint is percent growth (GI% or GIPRCNT), where numbers from 0 - 100% represent growth inhibition, and numbers from -100% - 0 represent cell death. […]
Compounds without any hit were thinned out: in the full panel of roughly 83,000, 20% have a hit.
observed-property: growth (%)

INSERT INTO measurements (compound, meas_value) VALUES
  ('CCCCCCCC/C=C\CCCCCCCCOc1ccc(CC(=O)NCC[N+]2(C)CCCC2)cc1', 25.3),
  ('FC(F)(F)c1cccc(-c2nnn(Cc3cc(-c4cccc(Cl)c4)no3)n2)c1', 103),
  ('[2H]C([2H])([2H])Oc1ccc(/C=C/C(=O)/C=C(O)/C=C/c2ccc(OC([2H])([2H])[2H])c(OC([2H])([2H])[2H])c2)cc1OC([2H])([2H])[2H]', 46.7),
  ('Nc1ncc(-c2ccc3ncnc(N4CCc5ccc(Cl)cc54)c3c2)cn1', 4.03),
  ('COC(=O)[C@H](C)NC(=O)c1ccc(NC(=O)c2[nH]c(C)c(Cl)c2Cl)c(OCCN)c1', 105),
  ('Cc1ccc2nc(/C=C/c3ccc(N(C)C)cc3)cc(C)c2c1', 15.1),
  ('CCOC(=O)/C(=C/c1ccc([N+](=O)[O-])cc1)C(=O)c1ccccc1', 55.2),
  ('CCOc1cc(\C=N/N=C(N)/C(N)=N\N=C/c2ccc(O)c(OCC)c2)ccc1O', 107),
  ('Nc1nc(=O)n([C@H]2CC=C(CO)O2)cc1F', 98.4),
  ('CN1C(=O)N(C)C2C1NN=c1s/c(=C\c3ccc(F)cc3)c(=O)n12 (configuration not stated)', 13),
  ('COC(=O)[C@@H](Cc1c[nH]c2ccccc12)NC(=O)[C@H](Cc1ccccc1)NCc1ccncc1', 104),
  ('COc1ccc(/C=C2/CCc3cc4ccc(OC)cc4[o+]c32)c(O)c1', 25.3),
  ('C=CCn1c(SCC(=O)Nc2ccc(C(=O)/C=C/c3ccc(Cl)cc3)cc2)nnc1-c1ccccc1', 106),
  ('CCN1C(=O)N(CC)C2C1NN=c1s/c(=C\c3ccc([N+](=O)[O-])cc3)c(=O)n12 (configuration not stated)', 8.23),
  ('O=c1c2cccc3c(N4CCOCC4)ccc(c32)c2nc3ccccc3n12', 88.4),
  ('CC1=NC(=S)NC(c2ccccc2)/C1=C1/CC(c2ccccc2O)NN1 (configuration not stated)', 104),
  ('COc1cccc(C2C3=C(COC3=O)N(CCO)c3cc4c(cc32)OCCO4)c1 (configuration not stated)', 5.46),
  ('Nc1ncc(-c2ccc3ncnc(N4CCc5cc(F)c(Cl)cc54)c3c2)cc1C=O', 11.8),
  ('C=C1C(=O)O[C@H]2[C@H]1CC/C(COC(=O)NCc1ccc(Cn3c(=O)sn(CCCC)c3=O)cc1)=C\CC[C@@]1(C)O[C@@H]21', 95.4),
  ('O=C1NCCS(=O)(=O)/C1=C\C=C\c1cccc(C(F)(F)F)c1', 50.1),
  ('COC(=O)c1c(C)nc(C)c2c1C(=O)C(Br)=C(NCCCCO)C2=O', 40),
  ('COc1ccc(S(=O)(=O)Oc2ccc(-c3sc4cc(OS(=O)(=O)c5ccc(OC)cc5)ccc4c3C(=O)c3ccc(OCCN4CCCCC4)cc3)cc2)cc1', 105),
  ('COc1ccc(-c2nc3cc(C(=O)NC4CCCCC4)ccc3n2C2CCCCC2)cc1', 86.2),
  ('C#CC#CC#CC#CC#CC#CC#CC#CC[C@@H]1OC[C@H](COC(=O)O[C@@H](C(=O)O[C@H]2C[C@@]3(O)[C@@H](OC(=O)c4ccccc4)[C@@H]4[C@]5(OC(C)=O)CO[C@@H]5C[C@H](O)[C@@]4(C)C(=O)[C@H](OC(C)=O)C(=C2C)C3(C)C)[C@@H](NC(=O)c2ccccc2)c2ccccc2)O1', 10.6),
  ('COc1ccc(-c2nc(SCCC(C)C)nc(N/N=C(/C)c3ccc(N)cc3)c2C#N)cc1', 101),
  ('NC(=O)[C@@H]1Cc2ccccc2CN1C(=O)c1ccc2c(c1)Cc1ccccc1-2', 91.5),
  ('Cc1ccc(Nc2cc(N)nc(N)n2)cc1', 101),
  ('CN1CCN(Cc2ccc(NC(=O)c3cncc(C#Cc4cnc(N)c5ncccc45)c3)cc2Cl)CC1', 3.07),
  ('O=C1C=CC2(O)OC(c3ccccc3)CC(=O)C2=C1O (configuration not stated)', 93.6),
  ('COc1cc2ncnc(Nc3ccc(S(=O)(=O)Nc4cc(C)on4)cc3)c2cc1OCCCN1CCOCC1', 110),
  ('CC1=C(C(=O)c2ccccc2)C(c2ccc3c(c2)OCO3)NC(=S)N1 (configuration not stated)', 8.05),
  ('COc1cc(OC)cc(C(=O)Nc2cnc(Nc3ccc(N4CCOCC4)nc3)nc2Oc2ccc(C(F)(F)F)cc2)c1', 31.1),
  ('CC(=O)/C(Br)=C/c1ccc(Br)o1', 105),
  ('O=C(O)COc1ccc(F)cc1', 113),
  ('Cc1ccccc1NC(=O)Cn1cc(CN2CCN(c3ccnc4cc(Cl)ccc34)CC2)nn1', 98.6),
  ('Cc1c(CC(=O)Nc2ccccc2)nnn1-c1ccccc1', 106),
  ('COc1cc(C2=Nc3c(N)nc(N)nc3NC(c3cccc(Nc4ccnc5cc(C(F)(F)F)ccc45)c3)C2)cc(OC)c1OC (configuration not stated)', 72.5);
